assay: in vitro; settings: human
test readout: CC50 (µM)
Use µM as the unit, but write only the number.

*Q* // CC50 lookup, key: `CC1(C)CN2C(CS/C(=N\C3CCCCC3)NC3CCCCC3)=CSC2=N1`
*A* 238

====

test system: human Flu-activated primary PBMC; assay: cells; format: cell-based
test readout: pEC50
Lab note: report pEC50 as minus log10 of the concentration in molar units, number only.

*Q* // pEC50 lookup, key: NCCc1c[nH]cn1 [Histamine]
*A* 5.85

====

Listing of recorded solubility by entry.
assay: Solubility of test compounds; settings: water

NC(=NCc1ccc(Cl)cc1)SCCCc1cnc[nH]1 [Clobenpropit, clobenpropit]: > 50 mg/mL

Pending compound:
*Q* // solubility lookup, key: CC1(C)CN2C(CS/C(=N\C3CCCCC3)NC3CCCCC3)=CSC2=N1 [IT1t]
*A* > 50 mg/mL

====

Listing of recorded pEC50 by entry.
test system: human Flu-activated primary PBMC; assay: cells; assay type: cell-based; settings: read-out: EC50
Lab note: report pEC50 as minus log10 of the concentration in molar units, number only.

CC1(C)CN2C(CS/C(=N\C3CCCCC3)NC3CCCCC3)=CSC2=N1 [IT1t]: 5.15

Pending compound:
*Q* // pEC50 lookup, key: NC(=NCc1ccc(Cl)cc1)SCCCc1cnc[nH]1 [Clobenpropit, clobenpropit]
*A* 4.62
